- Test system: SF-268 CNS
- TEST DETAILS: NCI-60 one-dose screen, 48 h (100 = growth as untreated, 0 = no growth, -100 = all killed)
- ASSAY SETUP: 10 µM unless noted
Compounds without any hit were thinned out: in the full panel of roughly 83,000, 20% have a hit.
# key: entry, value: growth
Kindly answer with a numeric value in %, unit omitted.

COc1ccc(OC)c(C(=O)/C=C/c2cc3c(c(OC)c2OC)OCO3)c1; 63.2
CCc1nc2c(=O)[nH]cnc2o1; 103
C=C(CNCCc1ccc(O)cc1)[C@@H]1CC[C@]2(CO)CC[C@]3(C)[C@H](CC[C@@H]4[C@@]5(C)CCC(NCCO)C(C)(C)[C@@H]5CC[C@]43C)[C@@H]12 (some centres undefined); -62.4
O=C(Cn1c2c(c3ccccc31)CCCC2)Nc1ccc(-c2nc3ccccc3s2)cc1; 97.6

GET /value?item= CS(=O)(=O)C1=CN(CCO)C(=O)N2CCCN=C12 &field=growth returns 97.2

GET /value?item= COc1cc(CNC(=O)/C=C/C=C/c2ccc3c(c2)OCO3)ccc1OCc1cn(-c2ccc(C)c(C)c2)nn1 &field=growth returns 107

GET /value?item= Cc1ccc(-c2nc(N3CCNCC3)c3oc(-c4ccccc4)nc3n2)cc1 &field=growth returns 7.93

GET /value?item= Cn1cccc1C(=O)C1C(c2cccc([N+](=O)[O-])c2)C2C3CCCCC3CN2C12C(=O)Nc1ccc(Cl)cc12 (centres undefined) &field=growth returns 52.3

GET /value?item= c1ccc(CNc2c3ccccc3nc3ccccc23)cc1 &field=growth returns 62.6

* * *

- System: HS 578T breast
- TEST DETAILS: NCI-60 one-dose screen, 48 h (100 = growth as untreated, 0 = no growth, -100 = all killed)
- ASSAY SETUP: 10 µM unless noted
About 83,000 compounds went through this panel and 20% of them were active in at least one assay; those are over-represented in the sample as a whole.
# key: entry, value: growth
Kindly answer with a numeric value in %, unit omitted.

Recorded growth, per entry:
Cn1c(=O)c2[nH]c(N/N=C/c3ccccc3Br)nc2n(C)c1=O; 161
O=C1Nc2ccc(I)cc2C1=O; 97.8
Nc1ncnc2c1N=C(c1ccc3c(c1)OCO3)CC(c1cccc(Nc3ccnc4cc(Cl)ccc34)c1)N2 (centres undefined); 87.1
C#Cc1cccc(Nc2ncnc3ccc(-c4cncc(NS(C)(=O)=O)c4)cc23)c1; 6.13

GET /value?item= Cc1oc(-c2ccc(Cl)cc2)nc1/C=C/C(=O)c1ccccc1 &field=growth returns 100

GET /value?item= COc1cc(OC)c2sc(-c3ccc(-n4cncc4-c4ccc(OC)c(OC)c4)cc3)nc2c1 &field=growth returns 75.5

GET /value?item= O=C1c2cccc(NCCN=Cc3cc(O)ccc3O)c2C(=O)c2c(NCCN=Cc3cc(O)ccc3O)cccc21 &field=growth returns -37.6

GET /value?item= C=CC(=O)NCc1ccc(Nc2nccc(-c3ccc(N4CCCC4)c(C#N)c3)n2)cc1 &field=growth returns 25.4

GET /value?item= O=S(=O)(Nc1ccc(Cl)cc1)c1ccc(-c2cnc(C3CC3)o2)cc1 &field=growth returns 4.3

GET /value?item= CC(C)CCNC(=O)Cn1cccc(NC(=O)OCc2ccccc2)c1=O &field=growth returns 103

GET /value?item= CC(C)CCC[C@@H](C)[C@H]1CC[C@H]2[C@@H]3CC=C4C[C@@H](C(C(=O)O)C(=O)O)CC[C@]4(C)[C@H]3CC[C@]12C &field=growth returns -12.7

GET /value?item= Cc1nnc(NC(=O)c2nc(S(=O)(=O)Cc3ccc(F)cc3)ncc2Cl)s1 &field=growth returns 93.1

GET /value?item= CC(=O)OCc1nc(C#N)c(N(C)C)o1 &field=growth returns 99.4

GET /value?item= OCc1cccc(-c2ccc3ncc(-c4nc(NC5CC5)ncc4F)n3c2)c1 &field=growth returns -29.8

GET /value?item= Cc1nc(N2CCOCC2)sc1S(N)(=O)=O &field=growth returns 100

GET /value?item= CCOC(=O)c1nc(Nc2ccc(NC(=O)Nc3ccc(F)cc3)cc2)c2ccccc2n1 &field=growth returns 99.9

GET /value?item= Cn1c(=O)c2c(nc(NC3=NS(=O)(=O)c4ccccc43)n2CC(=O)N2CCc3ccccc32)n(C)c1=O &field=growth returns 97

GET /value?item= O=S(=O)(NCCNc1nccc(-c2c(-c3cccc(F)c3)nc3occn23)n1)c1ccc(Br)cc1 &field=growth returns 74.6

GET /value?item= O=C(N/N=C/c1ccc(F)cc1)c1ccc(C(F)(F)F)nc1Nc1cccc(C(F)(F)F)c1 &field=growth returns -5.72

GET /value?item= O=C1/C(=C/c2ccc(Cl)cc2)COc2ccc(O)cc21 &field=growth returns 83.1

GET /value?item= O=C1Nc2ccccc2/C1=C\c1nc(-c2ccccc2F)n2ccccc12 &field=growth returns 12
